- EXPERIMENTAL_SYSTEM: T1, PDZRN3_1, Q9UPQ7
- T1 sequence (Q9UPQ7 244-349, limits assumed, looked up): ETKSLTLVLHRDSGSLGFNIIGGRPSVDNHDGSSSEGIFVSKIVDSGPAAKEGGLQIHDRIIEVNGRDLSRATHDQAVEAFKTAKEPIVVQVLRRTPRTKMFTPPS
- ASSAY_PROTOCOL: holdup assay
- Set-up: key: below the threshold = too weak to quantify, mostly under pKd 3.1 to 4
- CONDITION_LABEL: plain residues with an end cap or a label only (N-terminal biotin on a linker: ttds)
# pKd per entry
ASSAY_READOUT: pKd

BINDER: TVASEKESVM [SLC1A5, Q15758]
QUANTITATIVE_READOUT: 3.61
//
BINDER: VLRLQSETSV [VANGL1, Q8TAA9]
QUANTITATIVE_READOUT: 4.4
//
BINDER: STLTIFETAL [ABCC4, O15439]
QUANTITATIVE_READOUT: 5.46
//
BINDER: IDNDTESTAL [ARHGAP17, Q68EM7]
QUANTITATIVE_READOUT: 4.44
//
BINDER: SSRTRRETQL [HPV16-E6, P03126]
QUANTITATIVE_READOUT: 5.66
//
BINDER: IYVPEAQTRL [DLGAP4, Q9Y2H0]
QUANTITATIVE_READOUT: 3.94
//
BINDER: QSARYRDTEL [TJP2, Q9UDY2]
QUANTITATIVE_READOUT: 4.67
//
BINDER: SVWLRKETRV [CYSLTR2, Q9NS75]
QUANTITATIVE_READOUT: 5.1
//
BINDER: SRPQRTQTQV [HPV67-E6, A4U7F2]
QUANTITATIVE_READOUT: 3.76
//
BINDER: RSLEEEESQL [GRASP, Q7Z6J2]
QUANTITATIVE_READOUT: 4.24
//
BINDER: GQDSREETQL [KCNT2, Q6UVM3]
QUANTITATIVE_READOUT: 4.97
